tgt: BuChE (Equus caballus, UniProt P81908)
Sequence (P81908 whole entry): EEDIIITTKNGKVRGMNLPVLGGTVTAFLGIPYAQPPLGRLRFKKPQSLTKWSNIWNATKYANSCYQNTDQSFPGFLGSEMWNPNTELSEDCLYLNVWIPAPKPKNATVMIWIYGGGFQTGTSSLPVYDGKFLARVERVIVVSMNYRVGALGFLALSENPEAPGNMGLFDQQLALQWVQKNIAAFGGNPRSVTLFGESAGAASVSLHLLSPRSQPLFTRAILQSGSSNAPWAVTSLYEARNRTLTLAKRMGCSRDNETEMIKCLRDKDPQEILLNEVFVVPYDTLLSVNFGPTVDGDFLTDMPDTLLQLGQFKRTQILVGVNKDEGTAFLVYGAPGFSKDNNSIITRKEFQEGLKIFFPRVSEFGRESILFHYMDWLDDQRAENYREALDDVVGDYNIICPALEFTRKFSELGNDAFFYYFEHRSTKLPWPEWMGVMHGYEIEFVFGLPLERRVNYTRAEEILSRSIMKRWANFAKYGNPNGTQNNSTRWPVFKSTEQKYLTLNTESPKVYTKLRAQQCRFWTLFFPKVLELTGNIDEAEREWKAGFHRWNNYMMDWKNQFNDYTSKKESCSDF
assay.notes: biochemical
Type: biochemical
assay.setup: secondary replot; read-out: Ki (μM) on BuChE
measured.metric: Ki (µM)
Note: unit µM is implicit; provide only the numeric part.

- compound: "CC(C)=CC=C1C(=O)Nc2ccccc21 [Compound 4]"
  reading.unit: "µM"
  Ki: 3.5

Continue with the compound presented below.
Specify the recorded Ki for CC(C)=CC=C1C(=O)N(C)c2ccccc21 [Compound 3] , system: BuChE (Equus caballus, UniProt P81908).
4.9

###

Reported inhibition at 100 µM values for the following compounds.
tgt: AChE (Electrophorus electricus, UniProt O42275)
Construct: purchased Sigma-Aldrich C3389
Sequence (O42275 24-633): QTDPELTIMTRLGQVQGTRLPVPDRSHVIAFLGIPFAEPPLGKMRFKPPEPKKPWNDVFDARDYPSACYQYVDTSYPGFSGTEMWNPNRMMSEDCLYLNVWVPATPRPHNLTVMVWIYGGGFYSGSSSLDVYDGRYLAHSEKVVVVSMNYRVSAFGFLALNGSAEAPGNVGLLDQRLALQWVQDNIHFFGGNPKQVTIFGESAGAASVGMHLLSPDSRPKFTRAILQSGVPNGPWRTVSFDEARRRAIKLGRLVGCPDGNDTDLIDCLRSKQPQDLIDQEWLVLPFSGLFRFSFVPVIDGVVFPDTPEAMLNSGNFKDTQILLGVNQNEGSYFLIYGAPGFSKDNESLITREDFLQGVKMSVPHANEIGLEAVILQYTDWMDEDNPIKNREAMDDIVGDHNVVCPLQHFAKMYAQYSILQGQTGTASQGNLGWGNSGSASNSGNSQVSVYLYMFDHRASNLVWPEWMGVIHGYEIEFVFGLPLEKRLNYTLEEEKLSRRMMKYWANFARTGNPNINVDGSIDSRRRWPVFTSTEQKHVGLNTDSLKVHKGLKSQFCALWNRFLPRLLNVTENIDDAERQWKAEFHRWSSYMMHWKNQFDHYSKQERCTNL
assay.notes: biochemical
Assay type: biochemical
assay.setup: read-out: AChE inhibitory activity at 100 μM (%)
Report as: number unit

Worked set:
- compound: "CC(=O)O[C@@H]1C[C@@]23C[C@@]24CC[C@H](O)C(C)(C)[C@@H]4CC=C3[C@]2(C)C[C@@H]3O[C@]4(C[C@@H](C)[C@@H]3[C@@]12C)O[C@H](O)[C@@]1(C)O[C@@H]41 [Compound 7]"
  inhibition at 100 µM: "52%"
- compound: "C=C(C)[C@H]1O[C@@]23O[C@@H]1C[C@@H](C)[C@@H]2[C@@]1(C)CC[C@@]24C[C@@]25CC[C@H](O)C(C)(C)[C@@H]5CC=C4[C@]1(C)[C@H]3O [Compound 13, 25-anhydrocimigenol]"
  inhibition at 100 µM: "42.8%"
- compound: "C=C(C)C1OC23OC1CC(C)C2C1(C)CCC24CC25CCC(OC2OCC(O)C(O)C2O)C(C)(C)C5CC=C4C1(C)C3O (stereo not shown) [Compound 19]"
  inhibition at 100 µM: "21.5%"

Continue with the compound presented below.
Please give measured inhibition at 100 µM of the following entry: CC(=O)O[C@@H]([C@H]1C[C@@H](C)[C@H]2[C@@](O)(O1)[C@H](O)[C@@]1(C)C3=CC[C@H]4C(C)(C)[C@@H](O)CC[C@@]45C[C@@]35CC[C@]21C)C(C)(C)O [Compound 6]
53.7%

###

tgt: AChE (Electrophorus electricus, UniProt O42275)
Construct: purchased Sigma-Aldrich C3389
assay.notes: biochemical
Type: biochemical
assay.setup: read-out: AChE inhibitory activity at 100 μM (%)
measured.metric: inhibition at 100 µM (%)
Note: unit % is implicit; provide only the numeric part.

- molecule: "CC1CC2OC3(OC2C(C)(C)O)C1C1(C)CCC24CC25CCC(O)C(C)(C)C5CC=C4C1(C)C3O (stereo not drawn) [Compound 10, 24-epi-7,8-didehydrocimigenol]"
  value.measured: 31.8
- molecule: "C=C(C)[C@H]1O[C@@]23O[C@@H]1C[C@@H](C)[C@@H]2[C@@]1(C)CC[C@@]24C[C@@]25CC[C@H](O[C@@H]2OC[C@@H](O)[C@H](O)[C@H]2O)C(C)(C)[C@@H]5CCC4[C@]1(C)[C@H]3O (stereo partly shown)"
  value.measured: 37.1
- molecule: "CC(=O)OC1C(OC2CCC34CC35CCC3(C)C6C(C)CC7OC6(OC7C(C)(C)O)C(O)C3(C)C5=CCC4C2(C)C)OCC(O)C1O (stereo not shown) [Compound 18, cimiricaside A]"
  value.measured: 23.1
- molecule: "CC(=O)OC(C)(C)C1OC23OC1CC(C)C2C1(C)CCC24CC25CCC(O)C(C)(C)C5CC=C4C1(C)C3O (stereo not shown) [Compound 8, 25-O-acetyl-7,8-didehydrocimigenol]"
  value.measured: 55.4
- molecule: "CC(=O)OC(C)(C)[C@H]1O[C@@]23O[C@@H]1C[C@@H](C)[C@@H]2[C@@]1(C)CC[C@@]24C[C@@]25CC[C@H](O)C(C)(C)[C@@H]5CC[C@H]4[C@]1(C)[C@H]3O"
  value.measured: 15.8

Continue with the molecule presented below.
Please give measured inhibition at 100 µM of the following entry: CC(=O)OC(C)(C)C1OC23OC1CC(C)C2C1(C)CCC24CC25CCC(OC2OCC(O)C(O)C2O)C(C)(C)C5CC=C4C1(C)C3O (stereo not shown)
24.9

###

tgt: BuChE (Equus caballus)
assay.notes: biochemical
Type: biochemical
assay.setup: mean ± SEM, tested three times; read-out: BuChE IC50
measured.metric: IC50

Specify the recorded IC50 for "CC(C)=CC=C1C(=O)N(C)c2ccccc21" , system: BuChE (Equus caballus).
13.8 µM

Specify the recorded IC50 for "COC(=O)/C=C/c1ccc(O)c(OC)c1" , system: BuChE (Equus caballus).
37.1 µM

Specify the recorded IC50 for "CC(C)=CC=C1C(=O)Nc2ccccc21" , system: BuChE (Equus caballus).
6.5 µM

###

tgt: BuChE (Equus caballus, UniProt P81908)
assay.notes: biochemical
Format: biochemical
Reported IC50 values for the following compounds.
Note: unit µM is implicit; provide only the numeric part.

Worked set:
- compound: "CC1CC2OC3(OC2C(C)(C)O)C1C1(C)CCC24CC25CCC(OC2OCC(O)C(O)C2O)C(C)(C)C5CC=C4C1(C)C3O (stereo not shown)"
  reading.unit: "µM"
  IC50: 31
- compound: "CC(=O)OC1C(OC2CCC34CC35CCC3(C)C6C(C)CC7OC6(OC7C(C)(C)O)C(O)C3(C)C5=CCC4C2(C)C)OCC(O)C1O (stereo not shown) [Compound 18, cimiricaside A]"
  reading.unit: "µM"
  IC50: 51
- compound: "CC(=O)OC(C)(C)C1OC23OC1CC(C)C2C1(C)CCC24CC25CCC(OC2OCC(O)C(O)C2O)C(C)(C)C5CC=C4C1(C)C3O (stereo not shown)"
  reading.unit: "µM"
  IC50: 22.6

Please give measured IC50 of the following entry: C=C(C)[C@H]1O[C@@]23O[C@@H]1C[C@@H](C)[C@@H]2[C@@]1(C)CC[C@@]24C[C@@]25CC[C@H](O[C@@H]2OC[C@@H](O)[C@H](O)[C@H]2O)C(C)(C)[C@@H]5CCC4[C@]1(C)[C@H]3O (stereo partly shown)
33.3

###

tgt: AChE (Electrophorus electricus)
Construct: purchased Sigma-Aldrich C3389
assay.notes: biochemical
Format: biochemical
Reported pIC50 values for the following compounds.
pIC50 here: minus log base 10 of the concentration, concentration in moles per litre.

Worked set:
- compound: "CC(=O)O[C@@H]([C@H]1C[C@@H](C)[C@H]2[C@@](O)(O1)[C@H](O)[C@@]1(C)C3=CC[C@H]4C(C)(C)[C@@H](O)CC[C@@]45C[C@@]35CC[C@]21C)C(C)(C)O"
  pIC50: 4.02
- compound: "CC(=O)O[C@@H]1C[C@@]23C[C@@]24CC[C@H](O)C(C)(C)[C@@H]4CC=C3[C@]2(C)C[C@@H]3O[C@]4(C[C@@H](C)[C@@H]3[C@@]12C)O[C@H](O)[C@@]1(C)O[C@@H]41"
  pIC50: 4.04

Specify the recorded pIC50 for CC(=O)OC(C)(C)C1OC23OC1CC(C)C2C1(C)CCC24CC25CCC(O)C(C)(C)C5CC=C4C1(C)C3O (stereo not drawn) [Compound 8, 25-O-acetyl-7,8-didehydrocimigenol] , system: AChE (Electrophorus electricus).
4.16

###

Reported inhibition at 100 µM values for the following compounds.
tgt: BuChE (Equus caballus, UniProt P81908)
assay.notes: biochemical
Type: biochemical
assay.setup: read-out: BuChE inhibitory activity at 100 μM (%)
Note: unit % is implicit; provide only the numeric part.

Worked set:
- compound: "CC(=O)OC1C(OC2CCC34CC35CCC3(C)C6C(C)CC7OC6(OC7C(C)(C)O)C(O)C3(C)C5=CCC4C2(C)C)OCC(O)C1O (stereo not shown) [Compound 18, cimiricaside A]"
  measured.metric: "inhibition at 100 µM"
  value.measured: 54.4
- compound: "C=C(C)C1OC23OC1CC(C)C2C1(C)CCC24CC25CCC(O)C(C)(C)C5CC=C4C1(C)C3O (stereo not shown) [Compound 9, 25-anhydro-7,8-didehydrocimigenol]"
  measured.metric: "inhibition at 100 µM"
  value.measured: 51
- compound: "CC(=O)OC(C)(C)C1OC23OC1CC(C)C2C1(C)CCC24CC25CCC(O)C(C)(C)C5CC=C4C1(C)C3O (stereo not shown) [Compound 8, 25-O-acetyl-7,8-didehydrocimigenol]"
  measured.metric: "inhibition at 100 µM"
  value.measured: 18

Continue with the compound presented below.
Please give measured inhibition at 100 µM of the following entry: CC(=O)OC(C)(C)[C@H]1O[C@@]23O[C@@H]1C[C@@H](C)[C@@H]2[C@@]1(C)CC[C@@]24C[C@@]25CC[C@H](O)C(C)(C)[C@@H]5CC[C@H]4[C@]1(C)[C@H]3O [Compound 11, 25-O-acetylcimigenol]
14

###

tgt: BuChE (Equus caballus, UniProt P81908)
assay.notes: biochemical
Assay type: biochemical
assay.setup: read-out: BuChE inhibitory activity at 100 μM (%)
measured.metric: inhibition at 100 µM
Report as: number unit

Worked set:
- compound: "C=C(C)C1OC23OC1CC(C)C2C1(C)CCC24CC25CCC(OC2OCC(O)C(O)C2O)C(C)(C)C5CC=C4C1(C)C3O (stereo not shown)"
  tgt: "BuChE (Equus caballus, UniProt P81908)"
  value.measured: "38.5%"
- compound: "CC(=O)OC(C)(C)C1OC23OC1CC(C)C2C1(C)CCC24CC25CCC(OC2OCC(O)C(O)C2O)C(C)(C)C5CC=C4C1(C)C3O (stereo not shown)"
  tgt: "BuChE (Equus caballus, UniProt P81908)"
  value.measured: "55%"
- compound: "C[C@@H]1C[C@H]2O[C@]3(O[C@@H]2C(C)(C)O)[C@H]1[C@@]1(C)CC[C@@]24C[C@@]25CC[C@H](O)C(C)(C)[C@@H]5CC=C4[C@]1(C)[C@H]3O [Compound 5, 7,8-didehydrocimigenol]"
  tgt: "BuChE (Equus caballus, UniProt P81908)"
  value.measured: "53.6%"
- compound: "CC(=O)O[C@H]([C@H]1C[C@@H](C)[C@H]2[C@@](O)(O1)[C@H](O)[C@@]1(C)C3=CC[C@H]4C(C)(C)[C@@H](O)CC[C@@]45C[C@@]35CC[C@]21C)C(C)(C)O"
  tgt: "BuChE (Equus caballus, UniProt P81908)"
  value.measured: "18.6%"
- compound: "CC1CC2OC3(OC2C(C)(C)O)C1C1(C)CCC24CC25CCC(OC2OCC(O)C(O)C2O)C(C)(C)C5CC=C4C1(C)C3O (stereo not shown)"
  tgt: "BuChE (Equus caballus, UniProt P81908)"
  value.measured: "62%"

Please give measured inhibition at 100 µM of the following entry: "CC(=O)O[C@@H]([C@H]1C[C@@H](C)[C@H]2[C@@](O)(O1)[C@H](O)[C@@]1(C)C3=CC[C@H]4C(C)(C)[C@@H](O)CC[C@@]45C[C@@]35CC[C@]21C)C(C)(C)O"
57.3%

Please give measured inhibition at 100 µM of the following entry: CC1CC2OC3(OC2C(C)(C)O)C1C1(C)CCC24CC25CCC(O)C(C)(C)C5CC=C4C1(C)C3O (stereo not drawn) [Compound 10, 24-epi-7,8-didehydrocimigenol]
41.1%

Please give measured inhibition at 100 µM of the following entry: "CC(=O)O[C@@H]1C[C@@]23C[C@@]24CC[C@H](O)C(C)(C)[C@@H]4CC=C3[C@]2(C)C[C@@H]3O[C@]4(C[C@@H](C)[C@@H]3[C@@]12C)O[C@H](O)[C@@]1(C)O[C@@H]41"
41%

Please give measured inhibition at 100 µM of the following entry: C=C(C)[C@H]1O[C@@]23O[C@@H]1C[C@@H](C)[C@@H]2[C@@]1(C)CC[C@@]24C[C@@]25CC[C@H](O[C@@H]2OC[C@@H](O)[C@H](O)[C@H]2O)C(C)(C)[C@@H]5CCC4[C@]1(C)[C@H]3O (stereo partly shown)
60.7%

Please give measured inhibition at 100 µM of the following entry: C=C(C)[C@H]1O[C@@]23O[C@@H]1C[C@@H](C)[C@@H]2[C@@]1(C)CC[C@@]24C[C@@]25CC[C@H](O)C(C)(C)[C@@H]5CC=C4[C@]1(C)[C@H]3O [Compound 13, 25-anhydrocimigenol]
44.9%
